subject of test: Cytochrome P450 2C19 (Homo sapiens) (UniProt P33261)
Sequence (P33261 whole entry, looked up): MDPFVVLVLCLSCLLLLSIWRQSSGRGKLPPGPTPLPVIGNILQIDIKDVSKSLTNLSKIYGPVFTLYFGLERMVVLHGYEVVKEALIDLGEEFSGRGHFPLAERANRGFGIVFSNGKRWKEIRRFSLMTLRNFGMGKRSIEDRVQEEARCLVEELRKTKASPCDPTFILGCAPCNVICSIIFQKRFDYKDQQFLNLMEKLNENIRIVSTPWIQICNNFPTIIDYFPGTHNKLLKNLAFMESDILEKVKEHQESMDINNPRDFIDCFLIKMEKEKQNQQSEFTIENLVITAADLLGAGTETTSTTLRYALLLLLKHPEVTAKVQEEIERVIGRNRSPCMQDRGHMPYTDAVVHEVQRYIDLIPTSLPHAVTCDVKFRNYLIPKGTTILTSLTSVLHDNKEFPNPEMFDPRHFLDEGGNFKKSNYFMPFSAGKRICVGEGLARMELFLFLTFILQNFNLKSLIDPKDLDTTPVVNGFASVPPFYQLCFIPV
protocol text: Cytochrome panel assay with activity outcomes
setup conditions: recombinant CYP, pro-luciferin dealkylation, luminescence, p450-cyp2c19; series mostly up to 57.1 µM
The campaign covered roughly 16,000 compounds. About 5,800 (36%) were called active. Another 23% or so got no clear call; they are omitted. Calls follow the shape of the dose curve; as a rule, active = well fitted curve in the direction sought with a large enough effect; inconclusive = small, poorly fitted or top-dose-only effect, or effect the other way; inactive = no such curve, though single readings can be large or run the other way. Some of the results follow.
The reply should be one of these categories: Y = active, N = inactive

Field: example entries. Status: answers known.
{"compound": "CCCCCC(=O)Nc1cccc(-c2nc3ncccc3o2)c1", "group": "Y"}
{"compound": "COC(=O)[C@@]1(Cc2ccccc2)[C@H]2c3cc(C(=O)N4CCCC4)n(Cc4c(CO)[nH]cc(C)c4=O)c3C[C@H]2CN1C(=O)c1ccccc1", "group": "Y"}
{"compound": "CC[C@]1(C)CC(=O)NC1=O", "group": "N"}
{"compound": "Cc1cnc(CNc2ccnc(-c3c(C)noc3C)n2)cn1", "group": "N"}
{"compound": "FC(F)(F)c1ccccc1-c1ccc2ncnc(NCc3cccs3)c2c1", "group": "Y"}

Q: Hi team, can someone confirm the assay call for `COc1cccc(-c2ccc3ncnc(NCc4cnc(C)cn4)c3c2)c1` ?
A: Y

----------
subject of test: Cytochrome P450 2C19 (Homo sapiens) (UniProt P33261)
protocol text: Cytochrome panel assay with activity outcomes; as to activity, negative = inhibition: % is scaled to controls: 0 for no effect and ±100 for the full control effect
setup conditions: recombinant CYP, pro-luciferin dealkylation, luminescence, p450-cyp2c19; series mostly up to 57.1 µM
Among all 16,000 compounds or so, about 5,800 (36%) were called active. Another 23% or so got no clear call; they are omitted. This is one part of the list.
Provide the reported activity, negative = inhibition of each item.

These solved cases illustrate the format of a correct answer.
{"compound": "Cc1ccc2c(c1)N[C@H](c1ccc(C(=O)O)cc1)c1cccn1-2", "activity, negative = inhibition": "-26.9% [at 11.4 µM] (inactive)"}
{"compound": "CO[C@H]1COC(=O)[C@H](C)NC(=O)C/C=C\\[C@@H](C)[C@@H](NS(=O)(=O)c2ccc(C)cc2)COC(=O)[C@H](OCc2ccccc2)/C=C\\[C@@H]1C", "activity, negative = inhibition": "6.49% [at 11.4 µM] (inactive)"}
{"compound": "NC(N)=NC(N)=Nc1ccc(S(N)(=O)=O)cc1", "activity, negative = inhibition": "28.1% [at 11.4 µM] (inactive)"}

Please supply activity, negative = inhibition for each of the following items, keeping them in order.
1. Nc1c(OCC(=O)O)ccc2cc(S(=O)(=O)O)ccc12
2. CC(=O)OC[C@H]1O[C@@H](O/N=C(\C)CCN2CCCc3nc(C)c(C)cc32)[C@H](OC(C)=O)[C@@H](OC(C)=O)[C@H]1OC(C)=O
3. O=C1C2=CC[C@H]3C(=O)N(c4cccc(Oc5ccccc5)c4)C(=O)[C@@H]3[C@@H]2[C@H](O)[C@@H]2O[C@H]12
4. O=C(O)c1c[nH]c2c(ccc3[nH]cc(C(=O)O)c(=O)c32)c1=O

A:
1: -19.3% [at 11.4 µM] (inactive); 2: -24.1% [at 11.4 µM] (inactive); 3: 2.5% [at 11.4 µM] (inactive); 4: -8.42% [at 11.4 µM] (inactive)

----------
subject of test: Cytochrome P450 2C19 (Homo sapiens) (UniProt P33261)
protocol text: Cytochrome panel assay with activity outcomes
setup conditions: recombinant CYP, pro-luciferin dealkylation, luminescence, p450-cyp2c19; series mostly up to 57.1 µM
The campaign covered roughly 16,000 compounds. About 5,800 (36%) were called active. Not shown: some 23% with an inconclusive outcome. Calls come from the whole dose curve; as a rule, active = well fitted curve in the direction sought with a large enough effect; inconclusive = small, poorly fitted or top-dose-only effect, or effect the other way; inactive = no such curve, though single readings can be large or run the other way. The list shows a part of the results.
The reply should be one of these categories: 1 (active), 0 (inactive)

Field: example entries. Status: answers known.
{"compound": "c1ccc(C(c2ccccc2)N2CC3(CCNCC3)C2)cc1", "subject of test": "Cytochrome P450 2C19 (Homo sapiens) (UniProt P33261)", "group": 0}
{"compound": "N#Cc1c(NC(=O)C(F)(F)F)sc2c3c(=O)c4ccccc4c(=O)c=3oc3ccccc3c12", "subject of test": "Cytochrome P450 2C19 (Homo sapiens) (UniProt P33261)", "group": 1}
{"compound": "Nc1ccc(S(=O)(=O)Nc2ccc(Cl)nn2)cc1", "subject of test": "Cytochrome P450 2C19 (Homo sapiens) (UniProt P33261)", "group": 0}
{"compound": "Cc1ccc(N(Cc2ccc([N+](=O)[O-])cc2)C(=O)c2ccco2)cc1", "subject of test": "Cytochrome P450 2C19 (Homo sapiens) (UniProt P33261)", "group": 1}
{"compound": "CCc1cc2c(=O)c(-c3nc4ccccc4[nH]3)coc2cc1OC(=O)N1CCOCC1", "subject of test": "Cytochrome P450 2C19 (Homo sapiens) (UniProt P33261)", "group": 1}

Q: Hi team, can someone confirm the assay call for `O=C(CN1CCN(c2ncccn2)CC1)NCCC1=CCCCC1` ?
A: 1

Q: Hi team, can someone confirm the assay call for `O=C(CN1C(=O)NC2(CCCC2)C1=O)NCCC1=CCCCC1` ?
A: 1

Q: Hi team, can someone confirm the assay call for `N=c1n(-c2ccccc2)c(O)cc(=O)n1-c1ccccc1` ?
A: 0

Q: Hi team, can someone confirm the assay call for `COc1ccc2nc(C)cc(SCC(=O)Nc3c(C)cc(C)cc3C)c2c1` ?
A: 1

Q: Hi team, can someone confirm the assay call for `Cc1ccc(OCCCC(=O)Nc2ccccc2C(F)(F)F)cc1` ?
A: 1

Q: Hi team, can someone confirm the assay call for `CC1CCN(CC[C@@H]2CCCN2S(=O)(=O)c2cccc(O)c2)CC1` ?
A: 0

----------
subject of test: Cytochrome P450 2C19 (Homo sapiens) (UniProt P33261)
protocol text: Cytochrome panel assay with activity outcomes
setup conditions: recombinant CYP, pro-luciferin dealkylation, luminescence, p450-cyp2c19; series mostly up to 57.1 µM
Hit rate of the full screen: of about 16,000 compounds, about 5,800 (36%) were called active. Inconclusive results (about 23%) are left out. Calls follow the shape of the dose curve; as a rule, active = well fitted curve in the direction sought with a large enough effect; inconclusive = small, poorly fitted or top-dose-only effect, or effect the other way; inactive = no such curve, though single readings can be large or run the other way. The list shows a part of the results.
The reply should be one of these categories: active, inactive

{"compound": "CO[C@]1(NC(=O)CSCC#N)C(=O)N2C(C(=O)O)=C(CSc3nnnn3C)CS[C@H]21", "group": "inactive"}
{"compound": "O=C(NCc1ccccc1)c1ccc2c(c1)C(=O)N(CC1CCCO1)C2=O (stereo not given)", "group": "inactive"}
{"compound": "O=C(c1cc(C(F)(F)F)cc(C(F)(F)F)c1)N1CCC2(CC1)CCN(c1ccncc1)CC2", "group": "inactive"}
{"compound": "O=C(Nc1ccc(Cl)cc1)OCCn1nnnc1C(c1ccccc1Cl)N1CCOCC1 (stereo not given)", "group": "active"}
{"compound": "COc1cc(/C=C(\\C#N)C(=O)c2ccc(O)c(O)c2)cc(I)c1O", "group": "inactive"}

Q: Hi team, can someone confirm the assay call for `Cn1c(=O)n(C)c2cc(/C=N/NC(=O)c3ccc(Cl)cc3Cl)ccc21` ?
A: active

Q: Hi team, can someone confirm the assay call for CCC(Sc1nc2cc3c(cc2c(=O)n1Cc1ccco1)OCO3)C(=O)Nc1ccccc1OC (stereo not given) ?
A: active

----------
subject of test: Cytochrome P450 2C19 (Homo sapiens)
protocol text: Cytochrome panel assay with activity outcomes
setup conditions: recombinant CYP, pro-luciferin dealkylation, luminescence, p450-cyp2c19; series mostly up to 57.1 µM
Description: The P450 gene superfamily is involved in the metabolism and clearance of xenobiotics. This assay used various human CYP P450 isozymes to measure the dealkylation of various pro-luciferin substrates to luciferin. The luciferin is then measured by luminescence after the addition of a luciferase detection reagent. […] Inhibitors and some substrates limit the production of luciferin, and decrease measured luminescence. […] 8, Detection, 1 sec, ViewLux luminescent read […]
The campaign covered roughly 16,000 compounds. About 5,800 (36%) were called active. Another 23% or so got no clear call; they are omitted. Calls come from the whole dose curve; as a rule, active = well fitted curve in the direction sought with a large enough effect; inconclusive = small, poorly fitted or top-dose-only effect, or effect the other way; inactive = no such curve, though single readings can be large or run the other way. The list shows a part of the results.
The reply should be one of these categories: TRUE = active, FALSE = inactive

{"molecule smiles": "COCCn1c(=O)c(-c2ccc(OC)cc2)nc2cnc(N3CCOCC3)nc21", "group": "FALSE"}
{"molecule smiles": "Cc1cc(C)c(C#N)c(SCc2cc3c(cc2Cl)OCO3)n1", "group": "TRUE"}
{"molecule smiles": "Cc1ccc(NC(=O)Nc2ncccc2C)cc1", "group": "TRUE"}
{"molecule smiles": "COc1ccc(/C=N/NC(=O)c2ccn[nH]2)cc1COc1ccc(F)cc1", "group": "TRUE"}
{"molecule smiles": "COc1ccc(/C=N/NC(=O)c2ccccc2)cc1CN1CCN(c2ccc(F)cc2)CC1", "group": "TRUE"}

Q: Hi team, can someone confirm the assay call for `COc1ccc(-c2cc(C(F)(F)F)nc(N3CCCCC3)n2)cc1OC` ?
A: TRUE
